system under test: PDE 4 (phosphodiesterase IV)
test summary: PDE 4 inhibiting effect (3H-cAMP hydrolysis, PDE 4 active fraction from Balb/c mouse liver)
Type: biochemical
condition description: PDE 4 fraction from Balb/c mice liver, 0.064 μM cAMP, 2 hours at 25° C.; read-out: PDE4 IC50
measured attribute: pIC50
Entry type: numeric. Quantity: pIC50, the -log10 of concentration in molar units.

Reference set (4 entries):
• CC(=O)N1CCc2cc(NC(=O)c3cc4c(C)nn(C5CCCCC5)c4s3)ccc21 = 5.70
• Cc1nn(C2CCCCC2)c2sc(C(=O)Nc3ccc(OCC(=O)N(C)C)cc3)cc12 = 5.70
• Cc1nn(C2CCCCC2)c2sc(C(=O)Nc3ccc(C(=O)NCCO)cc3)cc12 = 5.70
• CNC1CCN(c2ccc(NC(=O)c3cc4c(C)nn(C5CCCCC5)c4s3)cc2Cl)CC1 = 6.19

[in] Enter reported pIC50 observed with PDE 4 (phosphodiesterase IV) for `Cc1nn(C2CCCCC2)c2sc(C(=O)Nc3ccc(C(=O)NCCO)nc3)cc12`
[out] 5.92

[in] Now consider `Cc1nn(C2CCCCC2)c2sc(C(=O)Nc3ccc(N4CCNC4=O)nc3)cc12` .
[out] 6.09

[in] Now consider `Cc1nn(C2CCCCC2)c2sc(C(=O)Nc3ccc4c(c3)CCN4C(=O)C3CC3)cc12` .
[out] 5.44
